The origin of these recorded values is PubChem BioAssay AID1159580.

# assayMethodText: chemical genetic growth profiling, strain panel (AID 1159580);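 note: tested at 20 µM; growth read once vehicle control cultures reached saturation at 30 °C; 1 = growth at the plate median or of vehicle wells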
# testContext: S. cerevisiae deletion strains, growth OD, locus YPR141C, strain kar3, active compounds read low
The whole screen tested about 5,500 compounds, of which about 2,000 (36%) were called active. Not shown: some 18% with an inconclusive outcome. The list shows a part of the results.
So basically: is normalized growth under 1? Then 1. Not under? Then 0.

Is the reported normalized growth for CC(C)N(CCC(C(N)=O)(c1ccccc1)c1ccccn1)C(C)C (stereo not given) strictly below 1?
1

Check if normalized growth falls below 1 for O=C(O[C@@H]1Cc2c(O)cc(O)cc2O[C@@H]1c1cc(O)c(=O)c2c(O)c(O)cc([C@H]3Oc4cc(O)cc(O)c4C[C@H]3O)c2c1)c1cc(O)c(O)c(O)c1 .
0

###

# assayMethodText: chemical genetic growth profiling, strain panel (AID 1159580)
# testContext: S. cerevisiae deletion strains, growth OD, locus YDL101C, strain DUN1, active compounds read low
In all, about 5,500 compounds went through this assay and about 2,000 (36%) were called active. Roughly 18% stayed inconclusive and do not appear here. The list shows a part of the results.
readout: normalized growth
In your answer, state the number alone without any accompanying words.

Please list normalized growth recorded for the compound Cc1c(C)c(C)c(C(O)c2ccccc2)c(C)c1C (stereo unspecified)
0.998

Given the compound Cn1c2c(c3c1CCCC3)CCCC2 , write its reported normalized growth.
0.974

Give recorded normalized growth. CC(C1OC(C)(C)C(O)C1O)[C@@H]1CC[C@]2(C)C3=CCC4C(C)(C)C(=O)CC[C@]4(C)C3CC[C@@]12C (stereo partly specified)
0.989

Note down normalized growth recorded for CC(CC(O)C1OC1(C)C)[C@@H]1CCC2(C)C3=CCC4C(C)(C)C(=O)CCC4(C)C3CC[C@@]12C (stereo partly specified)
1.04

Specify reported normalized growth for the compound shown: ON=C(c1cccs1)c1cccs1
0.94

Write down normalized growth measured for item CNC(C)C(O)c1ccccc1 (stereo unspecified)
1

Given the compound C[C@@H]([C@H](O)c1ccccc1)N(C)C , write its reported normalized growth.
1

Please give measured normalized growth of the following entry: Cc1cc(I)c(C)cc1I
1.02

Please supply the value of reported normalized growth for the item O=C1C(Cl)=C(Oc2cc(Cl)c(Cl)cc2Cl)C(=O)c2ccccc21
0.524

For the compound COc1ccccc1Oc1ccc(C(F)(F)F)cc1NC(=O)NC(=O)c1ccccc1F , give its reported normalized growth.
0.968

Give a short answer stating reported normalized growth for O=S(=O)(CS(=O)(=O)Oc1ccc(Cl)c(Cl)c1)Oc1ccc(Cl)c(Cl)c1 .
0.971

###

Answer each item with its documented normalized growth.
# assayMethodText: chemical genetic growth profiling, strain panel (AID 1159580)
# testContext: S. cerevisiae deletion strains, growth OD, locus YDR159W, strain sac3, active compounds read low
Screen size: about 5,500 compounds; about 2,000 (36%) were called active. About 18% were inconclusive and are not listed. Some of the results follow. Where a SMILES comes first, the peptide text is derived from it.
Just the number, please, no unit attached.

Supply measured normalized growth of CCCC(C)(COC(N)=O)COC(=O)NC(C)C (centres undefined) in your reply.
0.986

Complete the entry with normalized growth for Cc1[nH]ccc2c1[nH]c1cc(=O)ccc12
0.978

Identify measured normalized growth associated with COC(=O)[C@H](Cc1ccccc1)NC(=O)[C@@H](N)CC(=O)O (H-Asp-Phe-OMe)
1.02

Respond only with normalized growth recorded for CN1C[C@H](C(=O)N[C@]2(C)O[C@@]3(O)[C@@H]4CCCN4C(=O)[C@H](Cc4ccccc4)N3C2=O)C[C@@H]2c3cccc4[nH]cc(c34)C[C@H]21
1

State its normalized growth: CCCCCc1c2c(cc(O)c1C(=O)O)OC(=O)c1c(cc(OC)cc1C(=O)CCCC)O2
0.994

Could you please provide reported normalized growth for O=C(OC1Cc2c(O)cc(O)cc2OC1c1cc(=O)c(O)c2c(O)c(O)cc(C3Oc4cc(O)cc(O)c4CC3O)c2c1)c1cc(O)c(O)c(O)c1 (centres undefined) ? Thanks!
1.06

Given COc1cccc2c(C)cc(=O)[nH]c12 , respond with its normalized growth.
0.862

Indicate the recorded normalized growth value for this compound: Cc1ccccc1OCC(O)CO (centres undefined)
0.977

Fill in reported normalized growth for this entry: CCCCCC(=O)Cc1cc(O)cc(O)c1C(=O)Oc1cc(CC(=O)CCCCC)c(C(=O)O)c(OC)c1
0.771

###

# assayMethodText: chemical genetic growth profiling, strain panel (AID 1159580)
# testContext: S. cerevisiae deletion strains, growth OD, locus YML120C, strain ndi1, active compounds read low
Hit rate of the full screen: of about 5,500 compounds, about 2,000 (36%) were called active. Inconclusive results (about 18%) are left out. Some of the results follow.
Decide using normalized growth alone. Strictly below 1: satisfied. Equal to or above 1: not satisfied.

Could you please tell me whether normalized growth recorded for CCN(Cc1ccncc1)C(=O)C(CO)c1ccccc1 (stereo not given) is less than 1?
not satisfied

Regarding CC(=O)[C@@]1(O)CCC2C3C[C@H](C)C4=CC(=O)C=CC4(C)[C@@]3(F)[C@@H](O)C[C@@]21C (stereo not given in full) , kindly confirm whether its normalized growth is beneath 1.
satisfied

Could you please tell me whether normalized growth recorded for Oc1cc2c(cc1O)C1c3ccc(O)c(O)c3OCC1(O)C2 (stereo not given) is less than 1?
not satisfied

###

# assayMethodText: chemical genetic growth profiling, strain panel (AID 1159580);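 note: tested at 20 µM; growth read once vehicle control cultures reached saturation at 30 °C; 1 = growth at the plate median or of vehicle wells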
# testContext: S. cerevisiae deletion strains, growth OD, locus YGL227W, strain vid30
Among all 5,500 compounds or so, about 2,000 (36%) were called active. Roughly 18% stayed inconclusive and do not appear here. No stated cut-off is given here; in the data, active means normalized growth mostly below about 0.91 (no sharp cut-off); inconclusive means no clear call, values can overlap the other calls; inactive means mostly above about 0.92. The list shows a part of the results. Where a SMILES comes first, the peptide text is derived from it.
Response enum: active, inactive

GET /call?item= CC1CCC2(OC1)OC1CC3C4CC[C@H]5C[C@@H](O)CC[C@]5(C)C4CC(=O)[C@]3(C)C1C2C (stereo not given in full) returns the recorded outcome of this test.
inactive

Per the records of this test, what outcome belongs to C=C1CCC2(OC1)OC1CC3C4CC=C5CC(O)CC(O)C5(C)C4CCC3(C)C1C2C (stereo not given) ?
inactive

# outcome recorded in this test, key = CCC(c1ccc(O)cc1)C(CC)c1ccc(O)cc1 (stereo not given)
inactive

Could you please tell me the result logged for COc1cccc2c(C)cc(=O)[nH]c12 in this assay?
inactive

// param item: CC/C(=C(/CC)c1ccc(O)cc1)c1ccc(O)cc1 ; yields the recorded call
inactive

Per the assay record, what outcome was assigned to OCC(O)C(O)C(O)C(O)C(O)CO (stereo not given) ?
inactive

// return assay outcome for CC1CC[C@@]2(OC1)O[C@H]1CC3C4CC[C@@H]5C[C@@H](O)CC[C@]5(C)C4CC[C@]3(C)[C@H]1[C@@H]2C (stereo not given in full)
inactive

For O=C(O)C1=C[C@@H](O)[C@@H](O)[C@H](O)C1 , what call appears in the results of this test?
inactive

Test call for this molecule, please: COC(=O)[C@H](Cc1ccccc1)NC(=O)[C@@H](N)CC(=O)O (H-Asp-Phe-OMe)
inactive

Could you kindly confirm the outcome this assay logged for COc1ccc2c(c1)CCC1C2CC[C@@]2(C)C1CC[C@@H]2O (stereo not given in full) ?
active

###

# assayMethodText: chemical genetic growth profiling, strain panel (AID 1159580);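 note: tested at 20 µM; growth read once vehicle control cultures reached saturation at 30 °C; 1 = growth at the plate median or of vehicle wells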
# testContext: S. cerevisiae deletion strains, growth OD, locus YNL209W, strain ssb2, active compounds read low
The campaign covered roughly 5,500 compounds. About 2,000 (36%) were called active. Inconclusive results (about 18%) are left out. This is one part of the list.
Field: normalized growth. Provide a value for each of the compounds that follow.
Output spec: single numeric token, no unit.

Supply measured normalized growth of CC(=O)OCC1=C(C(=O)O)N2C(=O)[C@@H](NC(=O)Cc3cccs3)[C@H]2SC1 in your reply.
1

Assign normalized growth to the following record: CCOC(=O)c1c(C)cc(O)cc1O
0.97

Could you please provide reported normalized growth for CCOC(=O)c1c(C)cc(OC)cc1O ? Thanks!
0.992

Answer with the recorded normalized growth of N#Cc1nn(-c2c(Cl)cc(C(F)(F)F)cc2Cl)c(N)c1S(=O)C(F)(F)F (centres undefined) only.
0.995

Supply normalized growth value. Item: CCC(=O)c1c(O)cc(O)cc1O
0.992

Note down normalized growth recorded for C[C@@H]([C@H](O)c1ccccc1)N(C)C
1.02

Note normalized growth for the compound shown: CCC(N)C(O)c1ccc(O)c(O)c1 (centres undefined)
1

Dear colleague, please send me the reported normalized growth for Cc1cc(OC(=O)c2c(C)cc(O)cc2O)cc(O)c1C(=O)O when you can.
0.996

Quote normalized growth reported for Cc1ccccc1OCC(O)CO (centres undefined) please.
0.984

###

Kindly state normalized growth for each of the entries shown.
# assayMethodText: chemical genetic growth profiling, strain panel (AID 1159580);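 note: tested at 20 µM; growth read once vehicle control cultures reached saturation at 30 °C; 1 = growth at the plate median or of vehicle wells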
# testContext: S. cerevisiae deletion strains, growth OD, locus YER015W, strain faa2, active compounds read low
The whole screen tested about 5,500 compounds, of which about 2,000 (36%) were called active. About 18% were inconclusive and are not listed. The list shows a part of the results.
The answer should be written as a number, with no unit following it.

Kindly indicate its recorded normalized growth. Item: COc1ccc(-c2cc(=O)c3c(O)cc(O[C@@H]4O[C@H](CO[C@H]5O[C@H](C)[C@@H](O)[C@H](O)[C@@H]5O)[C@@H](O)[C@H](O)[C@H]4O)cc3o2)cc1O
1.01

Please supply the value of reported normalized growth for the item C[C@@H]1CC[C@@]2(OC1)OC1CC3C4CC=C5C[C@@H](O)CC[C@]5(C)C4CC[C@]3(C)C1[C@@H]2C (stereo partly drawn)
0.979

For the compound CCCCCCCCCCCC1=C(O)C(=O)C=C(O)C1=O , give its reported normalized growth.
0.748

Could you please provide reported normalized growth for CC1O[C@@H](Oc2c(-c3ccc(O)c(O)c3)oc3cc(O)cc(O)c3c2=O)[C@H](O)[C@H](O)[C@H]1O (stereo partly drawn) ? Thanks!
0.973

Report normalized growth for C[C@@H]1O[C@@H](OC[C@H]2OC(Oc3c(-c4ccc(O)c(O)c4)oc4cc(O)cc(O)c4c3=O)[C@H](O)[C@@H](O)[C@@H]2O)[C@H](O)[C@H](O)[C@H]1O (stereo partly drawn)
0.973

Determine its reported normalized growth: CNC(=O)Oc1cccc2c1OC(C)(C)O2
1

Determine its reported normalized growth: Cc1ccccc1OCC(O)CO (stereo not drawn)
0.976

Look up and state reported normalized growth for O=c1c(O)c(-c2ccc(O)c(O)c2)oc2cc(O)cc(O)c12
0.817
